For each entry below, report its pKi value.
# Tgt: Glutamate NMDA receptor
# Test Name: Displacement of [3H]CGP39653 from NMDA receptor in rat cortical synaptosome
pKi: −log10 of the molar value.

Ask | What measured pKi goes with CCc1cnn(O)c1[C@H](N)C(=O)O ?
Reply | < 4.00

Ask | What measured pKi goes with CC(C)c1cnn(O)c1[C@H](N)C(=O)O ?
Reply | < 4.00

Ask | What measured pKi goes with N[C@H](C(=O)O)c1ccnn1O ?
Reply | < 4.00
